Data provenance: patent US20230270723A1

Test: Phase I single oral dose pharmacokinetic study of dorzagliatin in subjects with mild or moderate hepatic impairment and healthy subjects (plasma, LC-MS/MS, non-compartmental)
Type: in vivo, human
Conditions: both sexes, human, plasma, po, 25 mg, single oral dose 25 mg; moderate hepatic impairment group; arithmetic mean; read-out: AUClast
Method: This phase I study is to access the pharmacokinetics and safety of a single dose of dorzagliatin in subjects with mild or moderate hepatic impairment, and heathy subjects. […] on Day −2 or −1, eligible subjects are admitted to a clinical research center (CRC). […] The samples are analyzed using LC-MS/MS. The plasma concentration-time data for dorzagliatin are analyzed using a non-compartmental model to obtain PK parameters, including Cmax, AUClast, and AUCinf. […]
Quantity name: AUC(0-t) (ng·h/mL)
Give the value in ng·h/mL but do not write ng·h/mL after it.

The reported value for CC(C)C[C@@H](C(=O)Nc1ccn(C[C@@H](O)CO)n1)N1CC(Oc2ccccc2Cl)=CC1=O [dorzagliatin] in terms of AUC(0-t) is 3410

---

assay: Phase I single oral dose pharmacokinetic study of dorzagliatin in subjects with mild or moderate hepatic impairment and healthy subjects (plasma, LC-MS/MS, non-compartmental); type: in vivo, human; settings: both sexes, human, plasma, po, 25 mg, free drug; single oral dose 25 mg; mild hepatic impairment group (N=7); arithmetic mean; read-out: AUClast,u
Quantity name: AUC(0-t) (ng·h/mL)
Kindly provide the numeric value in ng·h/mL only, without the unit symbol.

// sample CC(C)C[C@@H](C(=O)Nc1ccn(C[C@@H](O)CO)n1)N1CC(Oc2ccccc2Cl)=CC1=O , its AUC(0-t) was 169

---

Experiment: Plasma protein binding (PPB) analysis, free drug percentage (fu)
Format: in vitro ADME
Conditions: human, oral, 25 mg, free drug percentage in plasma, mild hepatic impairment group (N=7), arithmetic mean, read-out: fu
Source text: Eligible subjects were admitted to the Phase 1 study ward on either Day −2 or Day −1 to complete the baseline examination, and re-confirmed the inclusion/exclusion criteria by the investigator and fed a standardized meal after admission. […] The corresponding safety indicators at preset time points were detected for safety assessment. […]
Quantity name: fraction unbound

get_value(item= CC(C)C[C@@H](C(=O)Nc1ccn(C[C@@H](O)CO)n1)N1CC(Oc2ccccc2Cl)=CC1=O , readout=fraction unbound) returns 0.0719

---

test: Phase I single oral dose pharmacokinetic study of dorzagliatin in subjects with mild or moderate hepatic impairment and healthy subjects (plasma, LC-MS/MS, non-compartmental); assay type: in vivo, human; conditions: both sexes, human, plasma, po, 25 mg, free drug; single oral dose 25 mg; moderate hepatic impairment group; read-out: AUClast,u, geometric least squares mean
Quantity name: AUC(0-t) (ng·h/mL)
A number alone suffices; assume ng·h/mL.

Measured AUC(0-t) of CC(C)C[C@@H](C(=O)Nc1ccn(C[C@@H](O)CO)n1)N1CC(Oc2ccccc2Cl)=CC1=O : 280

---

assay: Phase I single oral dose pharmacokinetic study of dorzagliatin in subjects with mild or moderate hepatic impairment and healthy subjects (plasma, LC-MS/MS, non-compartmental); assay type: in vivo, human; conditions: both sexes, human, plasma, po, 25 mg, free drug; single oral dose 25 mg; healthy group; read-out: AUCinf,u, geometric least squares mean
Quantity name: AUC(0-inf) (µg·h/mL)
Provide only the numeric value, understood in µg·h/mL.

Entry CC(C)C[C@@H](C(=O)Nc1ccn(C[C@@H](O)CO)n1)N1CC(Oc2ccccc2Cl)=CC1=O ; AUC(0-inf) = 0.119

---

Experiment: Phase I single oral dose pharmacokinetic study of dorzagliatin in subjects with mild or moderate hepatic impairment and healthy subjects (plasma, LC-MS/MS, non-compartmental)
Format: in vivo, human
Conditions: both sexes, human, plasma, po, 25 mg, free drug; single oral dose 25 mg; healthy group; arithmetic mean; read-out: AUClast,u
Description: This phase I study is to access the pharmacokinetics and safety of a single dose of dorzagliatin in subjects with mild or moderate hepatic impairment, and heathy subjects. […] on Day −2 or −1, eligible subjects are admitted to a clinical research center (CRC). […] The samples are analyzed using LC-MS/MS. The plasma concentration-time data for dorzagliatin are analyzed using a non-compartmental model to obtain PK parameters, including Cmax, AUClast, and AUCinf. […]
Quantity name: AUC(0-t) (ng·h/mL)
Your answer is read as ng·h/mL, so omit the unit and give the number.

For CC(C)C[C@@H](C(=O)Nc1ccn(C[C@@H](O)CO)n1)N1CC(Oc2ccccc2Cl)=CC1=O [dorzagliatin] the compound record lists AUC(0-t) as 122

---

assay: Phase I single oral dose pharmacokinetic study of dorzagliatin in subjects with mild or moderate hepatic impairment and healthy subjects (plasma, LC-MS/MS, non-compartmental); format: in vivo, human; conditions: both sexes, human, plasma, po, 25 mg, single oral dose 25 mg; healthy group; arithmetic mean; read-out: Vz/F
Quantity name: Vd/F (L)
Numeric only. Scale: L

# Vd/F (compound: CC(C)C[C@@H](C(=O)Nc1ccn(C[C@@H](O)CO)n1)N1CC(Oc2ccccc2Cl)=CC1=O ) is 122

---

assay: Phase I single oral dose pharmacokinetic study of dorzagliatin in subjects with mild or moderate hepatic impairment and healthy subjects (plasma, LC-MS/MS, non-compartmental); type: in vivo, human; conditions: both sexes, human, plasma, po, 25 mg, single oral dose 25 mg; mild hepatic impairment group; arithmetic mean; read-out: AUClast
Quantity name: AUC(0-t) (µg·h/mL)
The reply should contain only the number, in µg·h/mL.

GET /value?item= CC(C)C[C@@H](C(=O)Nc1ccn(C[C@@H](O)CO)n1)N1CC(Oc2ccccc2Cl)=CC1=O &field=AUC(0-t) returns 2.24

---

assay: Phase I single oral dose pharmacokinetic study of dorzagliatin in subjects with mild or moderate hepatic impairment and healthy subjects (plasma, LC-MS/MS, non-compartmental); assay type: in vivo, human; details: both sexes, human, plasma, po, 25 mg, single oral dose 25 mg; healthy group; read-out: AUClast, geometric least squares mean
Quantity name: AUC(0-t) (ng·h/mL)
A number alone suffices; assume ng·h/mL.

AUC(0-t) in this record for CC(C)C[C@@H](C(=O)Nc1ccn(C[C@@H](O)CO)n1)N1CC(Oc2ccccc2Cl)=CC1=O [dorzagliatin] : 1840

---

assay: Phase I single oral dose pharmacokinetic study of dorzagliatin in subjects with mild or moderate hepatic impairment and healthy subjects (plasma, LC-MS/MS, non-compartmental); format: in vivo, human; settings: both sexes, human, plasma, po, 25 mg, single oral dose 25 mg; healthy group; median
Quantity name: Tmax (h)
The reply should contain only the number, in h.

So, CC(C)C[C@@H](C(=O)Nc1ccn(C[C@@H](O)CO)n1)N1CC(Oc2ccccc2Cl)=CC1=O [dorzagliatin] ? Its Tmax was 1.75

---

experiment: Phase I single oral dose pharmacokinetic study of dorzagliatin in subjects with mild or moderate hepatic impairment and healthy subjects (plasma, LC-MS/MS, non-compartmental); assay type: in vivo, human; settings: both sexes, human, plasma, po, 25 mg, single oral dose 25 mg; mild hepatic impairment group; arithmetic mean
Quantity name: half-life (h)
# output: bare number, implied unit h

Item: CC(C)C[C@@H](C(=O)Nc1ccn(C[C@@H](O)CO)n1)N1CC(Oc2ccccc2Cl)=CC1=O | half-life: 6.25

---

experiment: Phase I single oral dose pharmacokinetic study of dorzagliatin in subjects with mild or moderate hepatic impairment and healthy subjects (plasma, LC-MS/MS, non-compartmental); format: in vivo, human; details: both sexes, human, plasma, po, 25 mg, free drug; single oral dose 25 mg; healthy group; arithmetic mean; read-out: AUCinf,u
Quantity name: AUC(0-inf) (ng·h/mL)
A number alone suffices; assume ng·h/mL.

Summary for this molecule, CC(C)C[C@@H](C(=O)Nc1ccn(C[C@@H](O)CO)n1)N1CC(Oc2ccccc2Cl)=CC1=O [dorzagliatin] : AUC(0-inf) is 123

---

assay: Plasma protein binding (PPB) analysis, free drug percentage (fu); format: in vitro ADME; conditions: human, oral, 25 mg, free drug percentage in plasma, healthy group, arithmetic mean, read-out: fu
Quantity name: fraction unbound

For record CC(C)C[C@@H](C(=O)Nc1ccn(C[C@@H](O)CO)n1)N1CC(Oc2ccccc2Cl)=CC1=O [dorzagliatin] the listed fraction unbound is 0.0646

---

experiment: Phase I single oral dose pharmacokinetic study of dorzagliatin in subjects with mild or moderate hepatic impairment and healthy subjects (plasma, LC-MS/MS, non-compartmental); type: in vivo, human; details: both sexes, human, plasma, po, 25 mg, single oral dose 25 mg, fasted; mild hepatic impairment group (Child-Pugh 5-6); arithmetic mean; read-out: Cmax
Quantity name: Cmax (ng/mL)
Number in ng/mL, nothing else.

For record CC(C)C[C@@H](C(=O)Nc1ccn(C[C@@H](O)CO)n1)N1CC(Oc2ccccc2Cl)=CC1=O [dorzagliatin] the listed Cmax is 382

---

assay: Phase I single oral dose pharmacokinetic study of dorzagliatin in subjects with mild or moderate hepatic impairment and healthy subjects (plasma, LC-MS/MS, non-compartmental); format: in vivo, human; details: both sexes, human, plasma, po, 25 mg, free drug; single oral dose 25 mg; moderate hepatic impairment group; arithmetic mean; read-out: AUCinf,u
Quantity name: AUC(0-inf) (ng·h/mL)
Write the value in ng·h/mL as a bare number.

CC(C)C[C@@H](C(=O)Nc1ccn(C[C@@H](O)CO)n1)N1CC(Oc2ccccc2Cl)=CC1=O yielded AUC(0-inf) of 287
